protocol.text: qHTS assay to identify small molecule antagonists of the estrogen related receptor (ERR) signaling pathway from Tox21 library - cell viability counter screen (AID 1224834); further: nearly all actives have a fitted effect of over 30% in size
experimental.parameters: ERR reporter cells viability, CellTiter-Fluor, 17.5 h; series mostly up to 92.4 µM
Results filed as inconclusive are left out. Calls of active or inactive are those of the source. The call rests on the fitted dose curve; in most records, active means well fitted cell-killing curve with a large enough effect in the repeat runs; inconclusive means weak or mixed curves; inactive means flat fitted curve, though single readings scatter.
Assign a class; possible classes are y = active, n = inactive

Please share the test call associated with CCCCCCCCCCCCCC(=O)OCC(O)CO (stereo not drawn) . n

Would you mind telling me which call this test gave `C=CC(=O)O` ? n

Query: recorded result category for `CCN(CC)C(=O)N1CCN(C)CC1` in this test n

Per the assay record, what outcome was assigned to `C=C(C)c1ccccc1` ? n

Look up the recorded call for `C/C(C=O)=C\c1ccccc1` in this test. n

Hey, what did the test say about `CCCCC[C@H](O)/C=C/[C@H]1[C@H](O)CC(=O)[C@@H]1C/C=C\CCCC(=O)O` ? n

Called result for `CCN(CC)c1ccc(C(=C2C=CC(=[N+](CC)CC)C=C2)c2ccc(S(=O)(=O)O)cc2S(=O)(=O)[O-])cc1` y

Please indicate how the test categorized c1ccc(CNc2ncnc3c2ncn3C2CCCCO2)cc1 (stereo not drawn) . n

Dear all, I need the recorded test outcome for `CC12CC3CC(C)(C1)CC(N)(C3)C2` , thank you. n

Please share the test call associated with `CC(C)c1ccc(C(=O)N=C(N)N)cc1S(C)(=O)=O` . n

Outcome? `C=C(C)C(=O)OCCC(F)(F)C(F)(F)C(F)(F)C(F)(F)C(F)(F)C(F)(F)F` n

Short answer needed: outcome of this test for `CC[C@@H](CO)NCCN[C@@H](CC)CO` ? n

Outcome? `CCC(CO)(CO)CO` n

* * *

tested.system: Thyrotropin-releasing hormone receptor (Homo sapiens) (UniProt P34981)
Sequence (P34981 whole entry, looked up): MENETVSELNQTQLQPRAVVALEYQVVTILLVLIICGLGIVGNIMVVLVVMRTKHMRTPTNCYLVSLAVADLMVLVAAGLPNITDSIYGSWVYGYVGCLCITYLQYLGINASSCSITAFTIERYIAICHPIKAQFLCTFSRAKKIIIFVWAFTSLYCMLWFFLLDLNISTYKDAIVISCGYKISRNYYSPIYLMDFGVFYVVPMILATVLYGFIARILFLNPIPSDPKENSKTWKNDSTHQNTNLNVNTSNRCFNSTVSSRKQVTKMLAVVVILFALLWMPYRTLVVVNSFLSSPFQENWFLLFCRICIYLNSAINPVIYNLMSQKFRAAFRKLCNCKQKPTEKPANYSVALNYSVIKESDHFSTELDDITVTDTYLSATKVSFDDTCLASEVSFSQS
protocol.text: qHTS assay to identify small molecule agonists of the thyrotropin-releasing hormone receptor (TRHR) signaling pathway (AID 1346891);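 further: HEK293 cells expressing TRHR with calcium dye readout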
experimental.parameters: TRHR-HEK293 calcium fluorescence, agonist mode; series mostly up to 57.6 µM
Activity calls are given as the source filed them. Calls follow the shape of the full dose curve.
measurement.name: activation

CCCCCCC(O)CCOC(C)=O (stereo not drawn) = inactive
CCN(CC)c1ccc(C(=C2C=CC(=[N+](CC)CC)C=C2)c2ccc(S(=O)(=O)O)cc2S(=O)(=O)[O-])cc1 = inactive
O=C(O)/C=C/c1ccc(O)c(O)c1 = inactive

* * *

tested.system: Androgen receptor (Homo sapiens) (UniProt P10275)
Sequence (P10275 whole entry, looked up): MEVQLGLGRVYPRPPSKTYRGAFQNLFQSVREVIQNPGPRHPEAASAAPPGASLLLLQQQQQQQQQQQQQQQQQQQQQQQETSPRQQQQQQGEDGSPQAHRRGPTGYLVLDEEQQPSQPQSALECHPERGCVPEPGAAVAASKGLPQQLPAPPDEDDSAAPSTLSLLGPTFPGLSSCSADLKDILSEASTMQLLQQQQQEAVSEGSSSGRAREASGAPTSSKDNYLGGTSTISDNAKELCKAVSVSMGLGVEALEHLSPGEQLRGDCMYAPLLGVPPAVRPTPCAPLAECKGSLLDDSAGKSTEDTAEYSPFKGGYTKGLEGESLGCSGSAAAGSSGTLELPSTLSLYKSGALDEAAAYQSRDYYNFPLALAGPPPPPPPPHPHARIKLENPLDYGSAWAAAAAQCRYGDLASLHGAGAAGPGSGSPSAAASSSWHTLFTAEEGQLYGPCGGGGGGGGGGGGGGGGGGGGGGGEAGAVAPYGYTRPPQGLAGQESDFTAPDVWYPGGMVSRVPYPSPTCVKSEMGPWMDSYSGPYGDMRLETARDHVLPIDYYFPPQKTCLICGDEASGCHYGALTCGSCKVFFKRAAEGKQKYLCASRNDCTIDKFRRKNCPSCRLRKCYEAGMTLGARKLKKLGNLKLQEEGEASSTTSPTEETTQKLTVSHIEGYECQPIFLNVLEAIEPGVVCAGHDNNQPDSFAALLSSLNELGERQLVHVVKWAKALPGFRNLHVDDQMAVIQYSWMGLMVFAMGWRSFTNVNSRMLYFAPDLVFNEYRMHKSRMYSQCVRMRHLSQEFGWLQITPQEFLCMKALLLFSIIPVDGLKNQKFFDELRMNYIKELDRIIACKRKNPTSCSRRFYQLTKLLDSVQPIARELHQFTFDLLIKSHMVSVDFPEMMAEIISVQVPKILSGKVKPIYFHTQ
protocol.text: qHTS assay to identify small molecule antagonists of the androgen receptor (AR) signaling pathway using the MDA cell line (AID 743042; further: nearly all actives have a fitted effect of over 55% in size)
experimental.parameters: MDA-kb2 AR-luc, MMTV luciferase, R1881 antagonist, 16 h; series mostly up to 70.3 µM
Records with an inconclusive call do not appear. Activity calls are given as the source filed them. Calls follow the shape of the dose curve; as a rule, active = well fitted inhibition curve with a large enough effect in the repeat runs; inconclusive = weak or mixed curves, or effect the other way; inactive = no such curve, though single readings can be large or run the other way.
Write down the outcome that applies. Available outcomes: active, inactive

Call for entry `CC(=O)OCC(C)C` : inactive

Name the outcome recorded for `O=C1CC[C@@H](C(=O)O)N1` in the assay. inactive

For `CCC(CO)(CO)CO` , which call appears in the assay record? inactive

Look up the recorded call for CC1CCCC(=O)C1=O (stereo not given) in this test. inactive

Would you mind telling me which call this test gave COC(=O)C1=C(C)NC(C)=C(C(=O)OC(C)(C)CN(C)CCC(c2ccccc2)c2ccccc2)C1c1cccc([N+](=O)[O-])c1 (stereo not given) ? active

Test call, this molecule: `Nc1ccc(NC(=O)c2ccc(N)cc2)cc1` inactive

Test call, this molecule: `CCN(CC)c1cccc(O)c1` inactive

State the result this test recorded for `CC(=O)c1ccc[nH]1` . inactive

Dear all, I need the recorded test outcome for `BrC(Br)C(Br)Br` , thank you. inactive

Hey, what did the test say about `O=C(O)c1cc(Cl)cc(Cl)c1O` ? inactive

Hi, do you know how `CCCCCCCCCCCCCOS(=O)(=O)O` came out in this test? inactive

Could you please tell me the result logged for CCC(Cl)CC(Cl)C(Cl)C(Cl)C(Cl)C(C)Cl (stereo not given) in this assay? inactive

Outcome logged for `C=Cc1ccc(OC(C)=O)cc1` in this assay: inactive

What classification did `O=C(c1ccccc1)c1ccc(O)cc1` end up with in this test? inactive

I would be grateful if you could indicate the recorded call for `O=S(=O)(Cl)c1c(Cl)cccc1Cl` . inactive

GET /call?item= `CCN(CC)C(=O)/C(C#N)=C/c1cc(O)c(O)c([N+](=O)[O-])c1` returns the recorded outcome of this test. inactive

Write down the call the test reported for this molecule. Item: `CCC(C)(C)C(=O)O` inactive

Please let me know the test result on file for `O=C(Oc1ccccc1)c1ccc2ccccc2c1O` . inactive

Any idea what this test logged for COC(=O)CC(C(C)=O)C(=O)OC (stereo not given) ? inactive

So what was the verdict on CN1CCCN(C(c2ccccc2)c2ccc(Cl)cc2)CC1 (stereo not given) in this test? inactive

In this assay, the call recorded for `Nc1c(Cl)cc(Cl)cc1[N+](=O)[O-]` was what? inactive

Short answer needed: outcome of this test for `COc1cc(OC)c2ccc(=O)oc2c1` ? inactive

What was the test verdict on `O=NN(CCCl)C(=O)NCCCl` ? inactive

Dear colleague, could you share the recorded outcome for `O=C(O)/C=C/c1ccc(O)c(O)c1` when you have a moment? inactive

Which outcome was assigned to `CCCCCCCC(=O)OCCCCCC` in this test? inactive
